assay: Pharmacokinetics assay in mice; type: in vivo; conditions: female, mouse, po; C57 mice, intragastrical administration, 2 mg/kg, plasma; read-out: Plasma concentration Cmax
Quantity kind: Cmax (ng/mL)
Report only the number, with the unit ng/mL understood.

Example compounds with recorded Cmax:
Cn1nccc1Nc1nccc(-c2cc3n(c2)C(=O)N([C@H](CO)c2cccc(Cl)c2)C3)n1 | 1020
Cc1cccc([C@@H](CO)N2Cc3cc(-c4ccnc(Nc5ccnn5C)n4)cn3C2=O)c1 | 816

// next item, Cmax requested
Would you kindly share the measured Cmax for `Cn1nccc1Nc1nccc(-c2cc3n(c2)C(=O)N([C@H](CO)c2ccc(Cl)c(F)c2)C3)n1` ?
1540

====

The following compounds have recorded IC50 on ERK2 (Homo sapiens, UniProt P28482).
Sequence (P28482 2-360 limits assumed): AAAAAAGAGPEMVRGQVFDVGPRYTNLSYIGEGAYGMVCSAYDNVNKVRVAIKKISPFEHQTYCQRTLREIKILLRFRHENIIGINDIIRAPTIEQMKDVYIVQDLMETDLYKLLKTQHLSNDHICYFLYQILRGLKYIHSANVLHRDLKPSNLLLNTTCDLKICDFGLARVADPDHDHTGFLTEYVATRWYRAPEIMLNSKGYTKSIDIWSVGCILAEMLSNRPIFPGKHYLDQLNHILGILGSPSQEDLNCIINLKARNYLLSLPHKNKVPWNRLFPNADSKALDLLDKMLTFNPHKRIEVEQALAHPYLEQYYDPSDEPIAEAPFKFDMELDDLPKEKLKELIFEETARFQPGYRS
Could you give me the number in nM? Just the number is fine.

Cn1nccc1Nc1nccc(-c2cc3n(c2)C(=O)N([C@H](CO)c2cccc(F)c2)C3)n1 | 20
O=C1N([C@H](CO)c2cccc(Cl)c2)Cc2cc(-c3nc(NC4CCOCC4)ncc3Cl)cn21 | 6
Cc1cnc(Nc2ccnn2C)nc1-c1cc2n(c1)C(=O)N([C@H](CO)c1ccc(Cl)c(F)c1)C2 | 5
Cc1cnc(Nc2ccnn2C)nc1-c1cc2n(c1)C(=O)N([C@H](C)c1cccc(Cl)c1)C2 | 45

Missing value: IC50, ERK2 (Homo sapiens, UniProt P28482), entry `Cc1cnc(Nc2ccnn2C)nc1-c1cc2n(c1)C(=O)N([C@H](CO)c1ccc(F)c(Cl)c1)C2` . Fill in?
10

Same read-out for O=C1N([C@H](CO)c2cccc(Cl)c2)Cc2cc(-c3nc(NC4CC(O)C(F)C4)ncc3Cl)cn21 (stereo partly drawn) ?
63

====

biological target: ERK1 (Homo sapiens, UniProt P27361)
Sequence (P27361 whole entry): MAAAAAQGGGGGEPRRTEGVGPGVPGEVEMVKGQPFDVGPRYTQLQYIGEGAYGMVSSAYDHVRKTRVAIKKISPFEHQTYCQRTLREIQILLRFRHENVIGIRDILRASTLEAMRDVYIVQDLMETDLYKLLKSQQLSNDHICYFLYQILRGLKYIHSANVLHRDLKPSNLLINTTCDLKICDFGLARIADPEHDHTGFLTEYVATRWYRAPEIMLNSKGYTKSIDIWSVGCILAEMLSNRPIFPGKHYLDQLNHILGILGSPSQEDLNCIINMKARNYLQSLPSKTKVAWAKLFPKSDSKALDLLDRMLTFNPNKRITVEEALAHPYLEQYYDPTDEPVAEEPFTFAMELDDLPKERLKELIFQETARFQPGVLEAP
Quantity kind: pIC50
Schema: pIC50 number; meaning minus log10 of the concentration expressed in molar units.

Cn1nccc1Nc1nccc(-c2cc3n(c2)C(=O)N([C@H](CO)c2ccc(Cl)c(F)c2)C3)n1 | 7.52
Cc1cccc([C@@H](CO)N2Cc3cc(-c4ccnc(Nc5ccnn5C)n4)cn3C2=O)c1 | 8.30

Next compound, pIC50 to be filled in.
Give the measured pIC50 of `Cn1nccc1Nc1nccc(-c2cc3n(c2)C(=O)N([C@H](CO)c2cccc(Cl)c2)C3)n1` .
8.30

====

tested on: Colo205 cells; experiment: In vitro proliferation inhibition test on Colo205 tumor cells (CellTiter-Glo); format: cell-based; conditions: Homo sapiens, COLO 205, 72 h; 3 days of culture, CTG; read-out: IC50 value of the inhibition on in vitro Colo205 tumor cell proliferation
Quantity kind: pIC50
Conceptually, pIC50 converts a concentration in mol/L into minus its log10.

Cc1cnc(Nc2ccnn2C)nc1-c1cc2n(c1)C(=O)N([C@H](CO)c1ccc(F)c(Cl)c1)C2 | 7.13
O=C1N([C@H](CO)c2cccc(Cl)c2)Cc2cc(-c3nc(NC4CC(O)C(F)C4)ncc3Cl)cn21 (stereo partly drawn) | 6.80
Cc1cccc([C@@H](CO)N2Cc3cc(-c4ccnc(Nc5ccnn5C)n4)cn3C2=O)c1 | 7.26
Cc1cnc(Nc2ccnn2C)nc1-c1cc2n(c1)C(=O)N([C@H](CO)c1cccc(Cl)c1)CC2 | 7.11
C[C@@H](CO)Nc1ncc(Cl)c(-c2cc3n(c2)C(=O)N([C@H](CO)c2cccc(Cl)c2)C3)n1 | 7.09

For Colo205 cells, provide pIC50 of `Cn1nccc1Nc1nccc(-c2cc3n(c2)C(=O)N([C@H](CO)c2ccc(Cl)cc2)C3)n1` please.
6.92

Please give the result for `Cn1nccc1Nc1nccc(-c2cc3n(c2)C(=O)N([C@H](CO)c2ccc(Cl)c(F)c2)C3)n1` too.
7.17

Now this one: `CNC[C@H](c1cccc(Cl)c1)N1Cc2cc(-c3nc(Nc4ccnn4C)ncc3C)cn2C1=O`
7.00

Next compound: `Cn1nccc1Nc1nccc(-c2cc3n(c2)C(=O)N([C@H](CO)c2cccc(Cl)c2)C3)n1`
7.21

How about this compound: `Cn1nccc1Nc1nccc(-c2cc3n(c2)C(=O)N([C@H](CO)c2cccc(F)c2)C3)n1`
7.00

Can you handle `Cn1nccc1Nc1ncc(Cl)c(-c2cc3n(c2)C(=O)N([C@H](CO)c2cccc(Cl)c2)C3)n1` next?
7.49

====

AUC values by entry
experiment: Pharmacokinetics assay in mice; type: in vivo; conditions: female, mouse, po; C57 mice, intragastrical administration, 2 mg/kg, plasma; read-out: Area under curve AUC
Use ng·h/mL as the unit, but write only the number.

Solved entries (count: 2):
Cc1cccc([C@@H](CO)N2Cc3cc(-c4ccnc(Nc5ccnn5C)n4)cn3C2=O)c1 [Example 15] | 3700
Cn1nccc1Nc1nccc(-c2cc3n(c2)C(=O)N([C@H](CO)c2cccc(Cl)c2)C3)n1 [Example 10] | 3440

Query compound follows.
Dear colleague, I am looking for the recorded AUC of the following compound: Cn1nccc1Nc1nccc(-c2cc3n(c2)C(=O)N([C@H](CO)c2ccc(Cl)c(F)c2)C3)n1 [Example 20]
7630

====

Experiment: Pharmacokinetics assay in mice
Assay type: in vivo
Conditions: female, mouse, po; C57 mice, intragastrical administration, 2 mg/kg, plasma; read-out: Residence time MRT
Method: Mice were used as test animals. […] The pharmacokinetic behavior of the compounds of the present disclosure was studied in mice, and the pharmacokinetic characteristics were evaluated. 2.2 Test Animals Thirty-six C57 mice (female, equally divided into 4 groups) were purchased from Shanghai Jiesijie Laboratory Animal Co., LTD. A certain amount of the test compound was weighed and dissolved by the addition of 5% of DMSO and 5% of tween 80. […]
Quantity kind: MRT (h)
Reply with just the number (in h).

Use the examples below as a reference point.
Cc1cccc([C@@H](CO)N2Cc3cc(-c4ccnc(Nc5ccnn5C)n4)cn3C2=O)c1 | 3.3
Cn1nccc1Nc1nccc(-c2cc3n(c2)C(=O)N([C@H](CO)c2ccc(Cl)c(F)c2)C3)n1 | 4.95

Give the measured MRT of `Cn1nccc1Nc1nccc(-c2cc3n(c2)C(=O)N([C@H](CO)c2cccc(Cl)c2)C3)n1` .
3.47

====

test: Pharmacokinetics assay in mice; format: in vivo; conditions: female, mouse, po; C57 mice, intragastrical administration, 2 mg/kg, plasma; read-out: Apparent distribution volume Vz/F
Examples of compounds with documented Vd/F follow.
Number only, in L/kg; omit the unit.

Worked examples, 2 compounds total:
Cn1nccc1Nc1nccc(-c2cc3n(c2)C(=O)N([C@H](CO)c2cccc(Cl)c2)C3)n1 | 3.07
Cc1cccc([C@@H](CO)N2Cc3cc(-c4ccnc(Nc5ccnn5C)n4)cn3C2=O)c1 | 2.13

Read the next record carefully.
Look at this compound and give its reported Vd/F. `Cn1nccc1Nc1nccc(-c2cc3n(c2)C(=O)N([C@H](CO)c2ccc(Cl)c(F)c2)C3)n1`
1.41

====

Reported IC50 values for the following molecules.
tested on: Colo205 cells; assay: In vitro proliferation inhibition test on Colo205 tumor cells (CellTiter-Glo); type: cell-based; conditions: Homo sapiens, COLO 205, 72 h; 3 days of culture, CTG; read-out: IC50 value of the inhibition on in vitro Colo205 tumor cell proliferation
Express it in nM; write the number only.

// solved cases for IC50 follow
O=C1N([C@H](CO)c2cccc(Cl)c2)Cc2cc(-c3nc(NC4CCOCC4)ncc3Cl)cn21 | 82
COc1cc(F)cc([C@@H](CO)N2Cc3cc(-c4nc(Nc5ccnn5C)ncc4C)cn3C2=O)c1 | 90
Cn1nccc1Nc1nccc(-c2cc3n(c2)C(=O)N([C@H](CO)c2ccc(F)c(Cl)c2)C3)n1 | 180

Any idea what its IC50 is? The molecule is `Cc1cnc(Nc2ccnn2C)nc1-c1cc2n(c1)C(=O)N([C@H](CO)c1ccc(Cl)c(F)c1)C2`
92
